Recorded IC50 by entry
- Test system: BT474 and HN5 tumor cell lines
- Assay Protocol: Methylene blue growth inhibition assay (cellular Method A)
- Format: cell-based, Human
- Experimental Context: Homo sapiens, BT-474, 72 h, 3 days, read-out: Activity (Method): growth inhibition IC50 class

O=C(Nc1cccc(-c2nn3ccccc3c2-c2ccnc(Nc3cccc(OCCN4CCCC4)c3)n2)c1)c1c(F)cccc1F [Example 136]
< 100 nM

Could you share what IC50 was measured for O=C(Nc1cccc(-c2nn3ccccc3c2-c2ccnc(Nc3cccc(O)c3)n2)c1)c1c(F)cccc1F [Example 59] , tested on BT474 and HN5 tumor cell lines? < 100 nM

# iterate: Cc1cccc(C(=O)Nc2cccc(-c3nn4ccccc4c3-c3ccnc(Nc4cccc(F)c4)n3)c2)c1 [Example 18] 100 to 1000 nM

How about this compound: Cc1ccc(F)c(C(=O)Nc2cccc(-c3nn4ccccc4c3-c3ccnc(Nc4cccc(OCCN(C)C)c4)n3)c2)c1F [Example 190] < 100 nM

Now try O=C(Nc1cccc(-c2nn3ccccc3c2-c2ccnc(Nc3ccc(N4CCOCC4)c(F)c3)n2)c1)c1c(F)cccc1F [Example 99] . < 100 nM

Then this compound: Cn1cccc1C(=O)Nc1cccc(-c2nn3ccccc3c2-c2ccnc(Nc3ccc4c(c3)OCCO4)n2)c1 [Example 3] 100 to 1000 nM

Data origin, for the record: patent US7812022B2
